From: PubChem BioAssay AID849

tested on: Saccharomyces cerevisiae lifespan shortening, growth inhibition; test: yeast lifespan shortening compounds, dose response (AID 849);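 note: yeast growth read as optical density after two days at 30 degrees C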
The source made the active and inactive calls. The rule behind the calls is not given here.
The reader will find reported IC50 values listed item by item below.

Examples from the recorded data:
State the recorded IC50 for this entry: COc1ccc(-c2n[nH]c(C)c2-c2ccc(Cl)cc2)c(O)c1 33.4 µM

State the recorded IC50 for this entry: O=C(Nc1cccc(N=Cc2cc(Br)cc(Br)c2O)c1)c1ccco1 19.3 µM

State the recorded IC50 for this entry: O=Cc1c(Sc2ccccc2)nc2ccccn2c1=O 29 µM

State the recorded IC50 for this entry: O=C1c2ccccc2C(=O)C1c1ccc2ccccc2n1 > 100 µM (inactive)

State the recorded IC50 for this entry: O=c1oc2ccccc2c(N2CCCC2)c1CN1CCCC1 > 100 µM (inactive)

***
State the recorded IC50 for this entry: COc1ccc(NCc2ccc([N+](=O)[O-])s2)c(OC)c1 41.1 µM

----------
system: Saccharomyces cerevisiae lifespan shortening, growth inhibition; assay: yeast lifespan shortening compounds, dose response (AID 849);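 note: yeast growth read as optical density after two days at 30 degrees C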
Calls of active or inactive are those of the source. The rule behind the calls is not given here.
Outcomes you can answer with include only these: active, inactive

Test call, this compound: O=C1c2ccccc2C(=O)c2c1cccc2N1CCOCC1 active

Test call, this compound: Cc1ccc(N=Cc2cccc(O)c2O)c(C)c1 active

Test call, this compound: Cc1nn(-c2cccc(C(F)(F)F)c2)c(Cl)c1/C=N/Nc1cccc(C(=O)O)c1 active

Test call, this compound: CCOc1ccc(NCc2nc3ccccc3n2CCOc2ccccc2)cc1 inactive

Test call, this compound: CC(C)(C)c1cc(NCCCn2ccnc2)n2ncc(-c3ccc(Cl)cc3)c2n1 inactive

Now consider a different compound.
Test call, this compound: Cn1cccc1C(=O)Nc1nc(-c2ccccn2)cs1 active

----------
test system: Saccharomyces cerevisiae lifespan shortening, growth inhibition; assay: yeast lifespan shortening compounds, dose response (AID 849);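 note: yeast growth read as optical density after two days at 30 degrees C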
The source made the active and inactive calls. The rule behind the calls is not given here.
Outcomes you can answer with include only these: true for active, false for inactive

# example entries with known answers
Test call, this compound: N#C/C(=C/c1cn(-c2ccccc2)nc1-c1cccc(OCc2ccc(F)cc2)c1)C(=O)NCCCn1ccnc1 false

Test call, this compound: O=S(=O)(/N=C(\Sc1ccc(Cl)cc1)c1ccccc1)c1ccccc1 true

Test call, this compound: Cc1cc(/C=N/n2cnnc2)c(C)n1-c1ccc(OCc2ccc(Cl)cc2Cl)cc1 false

Test call, this compound: Cc1c(C(=O)O)cccc1-c1ccc(/C=N/Nc2ccc(Br)cc2)o1 false

Test call, this compound: c1ccc2nc3ccccc3nc2c1 true

Test call, this compound: O=C(N/N=C/c1sc2ccccc2c1O)c1cccc2ccccc12 true

Test call, this compound: O=[N+]([O-])c1ccc(N/N=C/c2ccc[nH]2)cc1 false

Test call, this compound: O=C(O)CCC(=O)N1CCN(c2nc(-c3ccccc3Cl)c3cc(Br)ccc3n2)CC1 true

***
Test call, this compound: C=CCSC(=C(C#N)C#N)c1cc2c([nH]1)CCCC2 false

Test call, this compound: CC(NC(=O)/C(C#N)=C/c1ccc(Cl)c([N+](=O)[O-])c1)c1ccccc1 (stereo unspecified) false

Test call, this compound: COc1ccc(CCNC(=O)c2cnn3c(C(F)F)cc(C)nc23)cc1OC false

----------
system: Saccharomyces cerevisiae lifespan shortening, growth inhibition; test: yeast lifespan shortening compounds, dose response (AID 849);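 note: yeast growth read as optical density after two days at 30 degrees C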
The source made the active and inactive calls. No rule for the calls is given here.
OBSERVATION TYPE: IC50

Examples from the recorded data:
State the recorded IC50 for this entry: Cc1ccc(N/N=C/c2c(O)cc(C)oc2=O)cc1 24.3 µM

State the recorded IC50 for this entry: O=C(c1cc(-c2ccccc2O)on1)N1CCc2ccccc2C1 > 100 µM (inactive)

State the recorded IC50 for this entry: CCOC(=O)C1CCCCN1C(=O)CCc1c(C)nc2cc(-c3ccccc3)nn2c1C (configuration not stated) > 100 µM (inactive)

State the recorded IC50 for this entry: Cc1nn2c(-c3ccco3)nnc2c2ccccc12 26.5 µM

State the recorded IC50 for this entry: O=C(CCCSc1ccccc1)Nc1nc(-c2ccccn2)cs1 50.5 µM

State the recorded IC50 for this entry: Cc1ccc(C(=O)CSC2=NC(N)=C(C#N)C3(CCCCC3)C2C(N)=O)cc1 (configuration not stated) > 100 µM (inactive)

***
State the recorded IC50 for this entry: Oc1c(Cl)cc(Cl)cc1Sc1cc(Cl)cc(Cl)c1O 25.4 µM

State the recorded IC50 for this entry: CC(C)(C)N/N=C/c1cc(Cl)cc([N+](=O)[O-])c1O 12.9 µM

State the recorded IC50 for this entry: Cc1cccc(C(=O)O/N=C/c2c(N3CCOCC3)n(C)c3ccccc23)c1 35.3 µM

State the recorded IC50 for this entry: NNC(=O)c1ccc(COc2cccc3ccccc23)cc1 30.3 µM

State the recorded IC50 for this entry: CC(=O)/C(=N\Nc1ccc(C)cc1)N1CCOCC1 11.1 µM

State the recorded IC50 for this entry: Cc1nc(Cl)c2oc3ccccc3c2n1 > 100 µM (inactive)
